# targetEntity: T1, P17-His protein (human CD40 antigen) (human, UniProt P25942 21-193, limits assumed)
# T1 construct: also called human CD40 antigen (P17-His)
# T1 sequence (P25942 other isoform, or with tags, fused parts or gaps limits assumed): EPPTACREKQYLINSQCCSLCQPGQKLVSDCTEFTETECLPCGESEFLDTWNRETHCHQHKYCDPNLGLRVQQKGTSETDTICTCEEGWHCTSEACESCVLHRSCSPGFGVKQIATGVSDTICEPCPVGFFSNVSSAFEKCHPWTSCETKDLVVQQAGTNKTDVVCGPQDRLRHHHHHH
# assayInfo: BLI (Fortebio Octet RED96), antibody on Protein A sensor, P17-His 5-40 nM
Field: pKd. Provide a value for each of the binders that follow.
Scale: pKd equals -log10([C]), with [C] in mol/L.

Report measured pKd; entry is C8-11 antibody (antibody, V domains shown) VH: EVQLLESGGGLVRPGGSLRLSCAASGFTPGSYEMNWVRQAPGKGLEWVSYISSAGETTDYADSVKGRFTVSRDNSKNLLYLQMNSLRAEDTAVYYCARDVFFFDSSGDNGAYGMDVWGQGTMVTVSS VL: DIQLTQSPSSLTASVGDRVTITCRSSQGIRSSLAWYQQKPGKPPKLLIYGASSLLGGVPSRFSGSGSGTDFTLTISSLQPEDFATYYCQQLNSFPSTFGQGTKLEIK
8.03

Report measured pKd; entry is C8-5 antibody (antibody, V domains shown) VH: EVQLLESGGGLVRPGGSLRLSCAASGFTFGSYEMDWVRQAPGKGLEWVSYISSSGETTDYADSVKPRFTVSRDNSKNLLYLQMNSLRAEDTAVYYCARDVFFFDSSGDNGAYGMDVWGQGTMVTVSS VL: DIQLTQSPSSLTASVGDRVTITCRSSQGIRSSLAWYQQKPGKPPKLLIYGGSSLEGGVPSRFSGSGSGTDFTLTISSLQPEDFATYYCQQLNSFPSTFGQGTKLEIK
8.08

Report measured pKd; entry is C8-2 antibody (antibody, V domains shown) VH: EVQLLESGGGLVRPGGSLRLSCAASGFTFGSYEMNWVRQAPGKGLEWVSYISSSGETTDYADSVKGRFTVSRDNSKNLLYLQMNSLRAEDTAVYYCARDVFFFSPSGDNGAYGMDVWGQGTMVTVSS VL: DIQLTQSPSSLTASVGDRVTITCRSSQGIRSSLAWYQQKPGKPPKLLIYGASSLEGGVPSRFSGSGSGTDFTLTISSLQPEDFATYYCQQLNSFPSTFGQGTKLEIK
7.92
